Overview of reported protein stability index across a group of variants:
B1: PPFIA4 (parent)
chain: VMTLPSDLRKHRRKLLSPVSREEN

variants of: B1; experiment: protein stability index of a GFP-peptide fusion (GPS, HEK-293T) (PSI 1-6); higher = more stable; settings: c terminus: a fixed tail appended;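 note: lentivirally expressed fusions sorted by FACS into six bins by GFP to DsRed ratio, PSI derived from sequencing read proportions per bin multiplied by bin number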
outcome.measure: protein stability index

[[record]]
residues = "VMTLPSDLRKHRKKLLSPVSREEN [R13K]"
number = 3.5

[[record]]
residues = "VMTLPSDLRKHRRKLLSPVSRFEN [E22F]"
number = 2.44

[[record]]
residues = "VMTLPSDLRCHRRKLLSPVSREEN [K10C]"
number = 3.52

[[record]]
residues = "VMTLPSDLRKHRRKLLSPVSREIN [E23I]"
number = 3.15

[[record]]
residues = "VMTLGSDLRKHRRKLLSPVSREEN [P5G]"
number = 3.01

[[record]]
residues = "VMTLPSDLRKHRRKYLSPVSREEN [L15Y]"
number = 4.06

[[record]]
residues = "VMTTPSDLRKHRRKLLSPVSREEN [L4T]"
number = 4.28

[[record]]
residues = "VMTLPSDLRKHRRKLLSPVSRESN [E23S]"
number = 3.93

[[record]]
residues = "VMTLPSDLRKHRRKLLSPVSVEEN [R21V]"
number = 3.91

[[record]]
residues = "VMTLQSDLRKHRRKLLSPVSREEN [P5Q]"
number = 3.4

[[record]]
residues = "VMTLPSDLRKHRRKLLSDVSREEN [P18D]"
number = 4.7

[[record]]
residues = "VMTLPSDLYKHRRKLLSPVSREEN [R9Y]"
number = 3.41

[[record]]
residues = "VMTLPSWLRKHRRKLLSPVSREEN [D7W]"
number = 2.92

[[record]]
residues = "TMTLPSDLRKHRRKLLSPVSREEN [V1T]"
number = 4.25

[[record]]
residues = "VMTLPSDLRKHRRKLLYPVSREEN [S17Y]"
number = 4.07

[[record]]
residues = "VMTLPSDLRKHRRKLLSPVSREHN [E23H]"
number = 3.41

[[record]]
residues = "VMTLPMDLRKHRRKLLSPVSREEN [S6M]"
number = 3.4

[[record]]
residues = "VMTLPSDLRKHRRQLLSPVSREEN [K14Q]"
number = 3.94

[[record]]
residues = "VMTLPSDLRKHRRKLLSPVSRECN [E23C]"
number = 2.88

[[record]]
residues = "VMTLPSDLRKHRRKCLSPVSREEN [L15C]"
number = 3.55

[[record]]
residues = "VMTLPSDLRKHRRKLLSPVSFEEN [R21F]"
number = 3.54

[[record]]
residues = "VMTPPSDLRKHRRKLLSPVSREEN [L4P]"
number = 4.32

[[record]]
residues = "VMTLPSDLRKHRRKLLSPVSRYEN [E22Y]"
number = 2.93

[[record]]
residues = "VMTLPSDLRKHRRKLLSPVSREFN [E23F]"
number = 2.59

[[record]]
residues = "VMILPSDLRKHRRKLLSPVSREEN [T3I]"
number = 2.65

[[record]]
residues = "VMTLPSDLRKHRRKLLSPVVREEN [S20V]"
number = 3.23

[[record]]
residues = "VMTLPSDLRKHRRGLLSPVSREEN [K14G]"
number = 4.33

[[record]]
residues = "VMTLPSDLRKHRRKLLSPVMREEN [S20M]"
number = 3.82

[[record]]
residues = "VCTLPSDLRKHRRKLLSPVSREEN [M2C]"
number = 3.65

[[record]]
residues = "VMFLPSDLRKHRRKLLSPVSREEN [T3F]"
number = 1.74

[[record]]
residues = "VMTLPSDLRKHRRKLLSPVSRSEN [E22S]"
number = 3.68

[[record]]
residues = "VMTLPSDLRKHRRKLLGPVSREEN [S17G]"
number = 3.9

[[record]]
residues = "VMTLPSDLRKHRRKLLSPVSRELN [E23L]"
number = 3.4

[[record]]
residues = "VMTLPSDLRKHRRKLLSPVSREES [N24S]"
number = 3.91

[[record]]
residues = "VMTLPSDLRRHRRKLLSPVSREEN [K10R]"
number = 3.95

[[record]]
residues = "VMTLNSDLRKHRRKLLSPVSREEN [P5N]"
number = 3.47

[[record]]
residues = "VMTLPSDLRKTRRKLLSPVSREEN [H11T]"
number = 3.79

[[record]]
residues = "VMTLPSDLRKHRRKLKSPVSREEN [L16K]"
number = 4.03

[[record]]
residues = "VMTLPSVLRKHRRKLLSPVSREEN [D7V]"
number = 2.84

[[record]]
residues = "VMTLPSDLRKHRRKLLSPVSNEEN [R21N]"
number = 3.85

[[record]]
residues = "VMTLPSDLRKHRRKLLSPVSRWEN [E22W]"
number = 2.23

[[record]]
residues = "VMTLPSDLRKHRRKLLSPSSREEN [V19S]"
number = 4.21

[[record]]
residues = "VMTLPRDLRKHRRKLLSPVSREEN [S6R]"
number = 3.41

[[record]]
residues = "VMTLPSDLRKHRRKLLSPVLREEN [S20L]"
number = 3.44

[[record]]
residues = "VMTLPQDLRKHRRKLLSPVSREEN [S6Q]"
number = 3.63

[[record]]
residues = "VMTLPSDLRKHRRKLLSPVSREEW [N24W]"
number = 2.99

